Please respond with reported Ratio for every item in the list.
Molecular target: UniProt:P46059
Sequence (P46059 whole entry): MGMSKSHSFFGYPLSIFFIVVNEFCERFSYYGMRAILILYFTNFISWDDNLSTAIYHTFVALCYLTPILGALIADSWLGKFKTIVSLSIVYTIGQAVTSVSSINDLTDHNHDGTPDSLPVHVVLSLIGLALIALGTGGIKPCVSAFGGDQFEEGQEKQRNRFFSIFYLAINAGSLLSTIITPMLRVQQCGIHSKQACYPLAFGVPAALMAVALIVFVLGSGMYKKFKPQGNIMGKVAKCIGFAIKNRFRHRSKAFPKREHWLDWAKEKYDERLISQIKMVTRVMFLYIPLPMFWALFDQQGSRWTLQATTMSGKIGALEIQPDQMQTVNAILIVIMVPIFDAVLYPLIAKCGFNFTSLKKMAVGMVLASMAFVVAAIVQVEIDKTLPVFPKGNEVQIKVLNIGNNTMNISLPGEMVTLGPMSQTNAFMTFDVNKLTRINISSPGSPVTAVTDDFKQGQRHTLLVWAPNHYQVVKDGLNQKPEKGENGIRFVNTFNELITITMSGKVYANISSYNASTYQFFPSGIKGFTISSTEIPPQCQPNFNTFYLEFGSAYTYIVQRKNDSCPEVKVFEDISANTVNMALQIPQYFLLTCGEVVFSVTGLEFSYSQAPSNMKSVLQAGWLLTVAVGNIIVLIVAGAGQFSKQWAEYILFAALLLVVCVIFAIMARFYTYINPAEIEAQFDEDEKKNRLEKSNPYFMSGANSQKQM
Test: Ratio of substrate activity of FSA to compound at PepT1 in human Caco2 cells assessed as apparent permeability form apical to basolateral side at 2 mM in presence of Gly-Gln after 1 hr by HPLC analysis
Settings: caco-2, 1 h, 2000 µM
Answers are plain numbers.

Please review the entries below; each comes with its answer.
>>> df
                          compoundstructure  attributemeasured  observedresult
0  CC(C)Cc1ccc([C@@H](C)C(=O)OC[C@H](NC(=S)[C@H](C)N)C(=O)O)cc1              Ratio            1.07
1  CC(C)c1cccc(C(C)C)c1OC(=O)C[C@H](NC(=S)[C@H](C)N)C(=O)O              Ratio            0.89
2  COc1ccc2cc(CC/C(C)=N/OCCOC(=O)C[C@H](NC(=S)[C@H](C)N)C(=O)O)ccc2c1              Ratio             1.3

Lab note: next compound to report on.
Inquiry: What value of Ratio has been reported for the following compound? C[C@H](N)C(=S)N[C@@H](COC(=O)CC1(CN)CCCCC1)C(=O)O
Reply text: 0.69

###

Molecular target: Solute carrier family 15 member 1 (Oryctolagus cuniculus, UniProt P36836)
Sequence (P36836 whole entry): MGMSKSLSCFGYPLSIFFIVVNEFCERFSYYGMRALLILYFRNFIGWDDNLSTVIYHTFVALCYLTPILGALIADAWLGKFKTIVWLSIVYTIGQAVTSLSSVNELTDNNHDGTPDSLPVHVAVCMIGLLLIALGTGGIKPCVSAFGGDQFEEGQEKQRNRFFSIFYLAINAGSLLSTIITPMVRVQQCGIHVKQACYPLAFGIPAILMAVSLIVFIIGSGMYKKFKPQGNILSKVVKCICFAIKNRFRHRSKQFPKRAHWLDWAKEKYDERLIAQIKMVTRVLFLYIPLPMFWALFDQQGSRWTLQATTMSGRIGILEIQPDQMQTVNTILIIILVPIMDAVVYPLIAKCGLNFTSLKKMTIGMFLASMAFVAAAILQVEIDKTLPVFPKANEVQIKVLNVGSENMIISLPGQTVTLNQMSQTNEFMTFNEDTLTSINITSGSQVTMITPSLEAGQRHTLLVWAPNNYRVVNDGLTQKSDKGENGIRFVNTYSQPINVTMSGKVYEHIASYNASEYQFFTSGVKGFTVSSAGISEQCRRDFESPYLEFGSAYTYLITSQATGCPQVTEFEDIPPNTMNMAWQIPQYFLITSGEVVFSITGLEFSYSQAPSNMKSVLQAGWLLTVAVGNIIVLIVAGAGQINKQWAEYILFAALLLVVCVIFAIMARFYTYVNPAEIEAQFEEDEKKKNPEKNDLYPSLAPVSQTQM
Test: Binding affinity to rabbit PepT1 expressed in Xenopus laevis oocytes assessed as inhibition of [3H]-D-Phe-L-Gln uptake by Michaelis-Menten kinetics analysis
Format: ADME, cell-based
Details: read-out: Ki
attributeMeasured: Ki

Inquiry: What value of Ki has been reported for the following molecule? COc1ccc2cc(CC/C(C)=N/OCCOC(=O)C[C@H](NC(=S)[C@H](C)N)C(=O)O)ccc2c1
Reply text: 80 µM
